Below, each of the compounds is paired with its reported Emax value.
# System Tested: SIRT1 (Homo sapiens, UniProt Q96EB6)
# Test Description: Mass spectrometry based assay of SIRT1 activity (deacetylation of a p53-based acetylated peptide)
# Assay type: biochemical
# Condition Description: 10 nM SIRT1, 0.5 μM peptide substrate, 120 μM βNAD+, 25 minutes at 25° C.; read-out: % FOLD ACT. (percent maximum fold activation)

Known Emax results, listed for orientation:
| Compound | Endpoint | Experimental Result |
| --- | --- | --- |
| Cc1cnc(C(=O)NC2CCCc3ccc(-c4cccc(C(F)(F)F)c4)nc32)cn1 (centres unmarked) | Emax | > 200% |
| O=C(NC1CCCc2ccc(-c3cccc(C(F)(F)F)c3)nc21)c1cccnc1 (centres unmarked) | Emax | < 200% |
| O=C(NC1CCCc2ccc(-c3cccc(C(F)(F)F)c3)nc21)c1cscn1 (centres unmarked) | Emax | < 200% |
| O=C(NC1CCCc2ccc(-c3cccc(C(F)(F)F)c3)nc21)c1cccc(CN2CCCC2)c1 (centres unmarked) | Emax | < 200% |

QUERY: Look up and report measured Emax for this entry: CC(C)c1cccc(-c2cccc(C(C)NC(=O)c3cscn3)n2)c1 (centres unmarked)
RESULT: < 200%

QUERY: Annotate the compound Cc1cc(NC(=O)C2CCCc3ccc(-c4cccc(C(F)(F)F)c4)nc32)sn1 (centres unmarked) with its measured Emax.
RESULT: < 200%

QUERY: For CC(NC(=O)c1cnccn1)c1cccc(-c2cccc(C(F)(F)F)c2)n1 (centres unmarked) , write its Emax.
RESULT: > 200%

QUERY: Please list Emax recorded for the compound O=C(NC1CCCc2ccc(-c3cccc(C(F)(F)F)c3)nc21)c1ccnc(OCC(O)CO)c1 (centres unmarked)
RESULT: > 200%

----------
# System Tested: UniProt:Q96EB6
# Sequence (Q96EB6 1-747): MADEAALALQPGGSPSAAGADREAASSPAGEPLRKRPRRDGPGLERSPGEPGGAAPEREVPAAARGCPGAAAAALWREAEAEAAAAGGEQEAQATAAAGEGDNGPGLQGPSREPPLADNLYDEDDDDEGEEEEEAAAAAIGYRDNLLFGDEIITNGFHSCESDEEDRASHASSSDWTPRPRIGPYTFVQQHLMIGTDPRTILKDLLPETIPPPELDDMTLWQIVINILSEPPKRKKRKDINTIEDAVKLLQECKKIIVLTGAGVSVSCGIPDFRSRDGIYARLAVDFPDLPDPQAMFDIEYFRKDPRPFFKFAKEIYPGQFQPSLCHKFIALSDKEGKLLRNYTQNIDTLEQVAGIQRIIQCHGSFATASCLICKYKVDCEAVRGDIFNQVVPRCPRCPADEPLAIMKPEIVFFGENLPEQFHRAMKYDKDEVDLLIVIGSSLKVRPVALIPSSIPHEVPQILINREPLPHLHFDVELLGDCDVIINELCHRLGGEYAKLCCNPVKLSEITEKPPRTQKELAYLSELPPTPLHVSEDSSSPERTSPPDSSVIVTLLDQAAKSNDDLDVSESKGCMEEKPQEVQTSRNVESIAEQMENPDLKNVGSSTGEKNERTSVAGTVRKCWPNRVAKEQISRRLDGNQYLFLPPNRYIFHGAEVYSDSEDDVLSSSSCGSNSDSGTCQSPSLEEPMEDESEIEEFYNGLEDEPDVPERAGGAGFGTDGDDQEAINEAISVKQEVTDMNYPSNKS
# Test Description: Mass spectrometry based assay of SIRT1 activity (deacetylation of a p53-based acetylated peptide)
# Assay type: biochemical
# Condition Description: 10 nM SIRT1, 0.5 μM peptide substrate, 120 μM βNAD+, 25 minutes at 25° C.
Endpoint: EC1.5 (concentration of test compound that results in 150% activation of SIRT1)

Please review the entries below; each comes with its answer.
| Compound | Experimental Result |
| --- | --- |
| CC(NC(=O)c1ccccc1)c1cccc(-c2cccc(C(F)(F)F)c2)n1 (centres unmarked) | C (EC1.5>25 μM) |
| O=C(Nc1nccs1)C1CCCc2ccc(-c3cccc(C(F)(F)F)c3)nc21 (centres unmarked) | C (EC1.5>25 μM) |
| O=C(NC1CCCc2ccc(-c3cccc(C(F)(F)F)c3)nc21)c1ccc(F)c(Cl)c1 (centres unmarked) | C (EC1.5>25 μM) |
| O=C(NC1CCOc2ccc(-c3cccc(C(F)(F)F)c3)nc21)c1cccc(N2CCOCC2)n1 (centres unmarked) | A (EC1.5<10.0 μM) |

QUERY: Return reported EC1.5 (concentration of test compound that results in 150% activation of SIRT1). Input compound: O=C(NC1CCCc2ccc(-c3cccc(C(F)(F)F)c3)nc21)c1ccnc(CN2CCCC2)c1 (centres unmarked)
RESULT: C (EC1.5>25 μM)

QUERY: Let me know recorded EC1.5 (concentration of test compound that results in 150% activation of SIRT1) for O=C(Nc1cccc(CN2CCOCC2)n1)C1CCCc2ccc(-c3cccc(C(F)(F)F)c3)nc21 (centres unmarked) , thanks.
RESULT: C (EC1.5>25 μM)

QUERY: Tell me measured EC1.5 (concentration of test compound that results in 150% activation of SIRT1) for O=C(NC1CCCc2ccc(-c3cccc(C(F)(F)F)c3)nc21)c1cccc(N2CCCC2)n1 (centres unmarked) please.
RESULT: A (EC1.5<10.0 μM)

----------
# System Tested: SIRT1 (Homo sapiens)
# Sequence (Q96EB6 1-747): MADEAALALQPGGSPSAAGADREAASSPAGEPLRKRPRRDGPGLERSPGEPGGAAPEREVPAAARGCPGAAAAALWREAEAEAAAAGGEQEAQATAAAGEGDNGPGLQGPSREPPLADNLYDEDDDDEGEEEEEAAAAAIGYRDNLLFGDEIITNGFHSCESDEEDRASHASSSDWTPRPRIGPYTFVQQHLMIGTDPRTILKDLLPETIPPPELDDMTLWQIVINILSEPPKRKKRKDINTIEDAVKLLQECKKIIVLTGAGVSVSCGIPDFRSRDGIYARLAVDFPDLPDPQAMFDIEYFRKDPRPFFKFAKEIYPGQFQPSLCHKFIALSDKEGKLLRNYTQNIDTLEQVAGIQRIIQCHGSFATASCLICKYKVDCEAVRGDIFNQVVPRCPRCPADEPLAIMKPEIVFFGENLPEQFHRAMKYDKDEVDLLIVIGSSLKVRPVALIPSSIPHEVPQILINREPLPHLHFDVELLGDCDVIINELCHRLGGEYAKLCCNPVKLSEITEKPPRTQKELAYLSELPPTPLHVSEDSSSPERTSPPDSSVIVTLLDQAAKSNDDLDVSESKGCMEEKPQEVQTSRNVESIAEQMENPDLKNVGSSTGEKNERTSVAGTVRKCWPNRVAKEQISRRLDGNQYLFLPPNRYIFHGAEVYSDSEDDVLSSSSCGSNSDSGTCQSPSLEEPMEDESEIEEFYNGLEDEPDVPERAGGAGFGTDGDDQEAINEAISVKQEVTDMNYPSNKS
# Test Description: Mass spectrometry based assay of SIRT1 activity (deacetylation of a p53-based acetylated peptide)
# Format: biochemical
# Condition Description: 10 nM SIRT1, 0.5 μM peptide substrate, 120 μM βNAD+, 25 minutes at 25° C.
Endpoint: EC1.5 (concentration of test compound that results in 150% activation of SIRT1)

| Compound | Experimental Result |
| --- | --- |
| CC(NC(=O)c1cccnc1)c1cccc(-c2cccc(C(F)(F)F)c2)n1 (stereo not drawn) [Compound 212] | A (EC1.5<10.0 μM) |
| CC(NC(=O)c1ccccc1)c1cccc(-c2ccccc2)n1 (stereo not drawn) | C (EC1.5>25 μM) |
| O=C(Nc1ccncn1)C1CCOc2ccc(-c3cccc(C(F)(F)F)c3)nc21 (stereo not drawn) | C (EC1.5>25 μM) |
| CC(NC(=O)c1cnccn1)c1cccc(-c2ccccc2)n1 (stereo not drawn) | C (EC1.5>25 μM) |
| O=C(NC1CCCc2ccc(-c3cccnc3O)nc21)c1cnccn1 (stereo not drawn) | C (EC1.5>25 μM) |

QUERY: Please supply the value of reported EC1.5 (concentration of test compound that results in 150% activation of SIRT1) for the item O=C(NC1CCCc2ccc(-c3cccc(C(F)(F)F)c3)nc21)c1cccnc1 (stereo not drawn)
RESULT: C (EC1.5>25 μM)

QUERY: Return the recorded EC1.5 (concentration of test compound that results in 150% activation of SIRT1) value; entry: O=C(NC1CCCc2ccc(-c3cccc(C(F)(F)F)c3)nc21)c1ccccn1 (stereo not drawn)
RESULT: A (EC1.5<10.0 μM)

QUERY: Tell us which EC1.5 (concentration of test compound that results in 150% activation of SIRT1) value is on record for CC(NC(=O)c1cnccn1)c1cccc(-c2cccnc2)n1 (stereo not drawn)
RESULT: C (EC1.5>25 μM)

----------
# System Tested: SIRT1 (Homo sapiens)
# Test Description: Mass spectrometry based assay of SIRT1 activity (deacetylation of a p53-based acetylated peptide)
# Format: biochemical
# Condition Description: 10 nM SIRT1, 0.5 μM peptide substrate, 120 μM βNAD+, 25 minutes at 25° C.; read-out: % FOLD ACT. (percent maximum fold activation)
Endpoint: Emax

QUERY: // output Emax; input CC(C)c1cccc(-c2cccc(C(C)NC(=O)c3cnccn3)n2)c1 (stereo not shown) ; system SIRT1 (Homo sapiens)
RESULT: < 200%

QUERY: GET Emax where system = SIRT1 (Homo sapiens) and item = CC(NC(=O)c1cnccn1)c1cccc(-c2cccc(OC(F)(F)F)c2)n1 (stereo not shown)
RESULT: > 200%

QUERY: State Emax on SIRT1 (Homo sapiens). Entry: CC(NC(=O)c1cccnc1)c1cccc(-c2cccc(C(F)(F)F)c2)n1 (stereo not shown)
RESULT: > 200%

QUERY: Provide measured Emax on SIRT1 (Homo sapiens) for O=C(Nc1nc(CN2CCOCC2)cs1)C1CCCc2ccc(-c3cccc(C(F)(F)F)c3)nc21 (stereo not shown) please.
RESULT: > 200%

QUERY: Specify the recorded Emax for O=C(Nc1cnccn1)C1CCCc2ccc(-c3cccc(C(F)(F)F)c3)nc21 (stereo not shown) , system: SIRT1 (Homo sapiens).
RESULT: < 200%

QUERY: Fill: Emax (SIRT1 (Homo sapiens)) for this compound O=C(NC1CCCc2ccc(-c3cccc(C(F)(F)F)c3)nc21)c1cccc(N2CCOCC2)n1 (stereo not shown)
RESULT: > 200%

QUERY: Give Emax for this entry on SIRT1 (Homo sapiens): CC(NC(=O)c1cscn1)c1cccc(-c2cccc(C(F)(F)F)c2)n1 (stereo not shown)
RESULT: < 200%

QUERY: Jot down Emax (SIRT1 (Homo sapiens)) of O=C(Nc1ccnc(N2CCCC2)c1)C1CCCc2ccc(-c3cccc(N4CCOCC4)c3)nc21 (stereo not shown) .
RESULT: < 200%

QUERY: # return Emax for O=C(NC1CCCc2ccc(-c3cc(C(F)(F)F)ccc3F)nc21)c1cnccn1 (stereo not shown) , test system: SIRT1 (Homo sapiens)
RESULT: > 200%

QUERY: Using SIRT1 (Homo sapiens) as the test system, report measured Emax of O=C(NC1CCCc2ccc(-c3cccc(C(F)(F)F)c3)nc21)c1cc[nH]n1 (stereo not shown) .
RESULT: < 200%
